Here the recorded selectivity ratio h5HT1A is given for each entry.
# STUDY_SYSTEM: human 5HT1A receptor (Homo sapiens)
# Construct: expressed in transfected cells; host or cells: COS-7 cells, transient (pCEXV-3 vector)
# Sequence (P08908 whole entry): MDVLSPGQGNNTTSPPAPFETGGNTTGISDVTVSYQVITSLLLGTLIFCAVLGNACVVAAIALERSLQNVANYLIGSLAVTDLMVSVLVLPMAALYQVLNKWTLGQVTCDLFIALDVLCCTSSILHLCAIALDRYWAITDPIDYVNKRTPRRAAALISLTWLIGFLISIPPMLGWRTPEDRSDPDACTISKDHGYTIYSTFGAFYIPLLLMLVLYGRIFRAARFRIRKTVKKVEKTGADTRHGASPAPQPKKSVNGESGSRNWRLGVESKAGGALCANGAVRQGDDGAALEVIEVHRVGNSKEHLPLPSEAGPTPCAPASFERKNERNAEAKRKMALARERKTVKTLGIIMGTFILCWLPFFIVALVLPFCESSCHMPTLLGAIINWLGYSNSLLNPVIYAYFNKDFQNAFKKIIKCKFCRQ
# EXPERIMENT_NOTES: Radioligand binding, 5-HT1A receptor (3H-8-OH-DPAT)
# MEASUREMENT_CONDITIONS: Table 8; Ki h5HT1A divided by Ki hGAL3

INSERT INTO measurements (compound, result) VALUES
  ('Cc1ccc(Nc2cc(N3CCCCC3)nc(N(C)CCc3c[nH]c4ccccc34)n2)cc1 [Example 11]', '>30'),
  ('CN(C)c1cc(Nc2ccc(Cl)c(Cl)c2)nc(Nc2ccccc2)n1 [Example 60]', '>100'),
  ('COC[C@@H]1[C@@H](c2ccccc2)OCCN1c1nc(Nc2ccc(C)cc2)cc(N2CCCCC2)n1 [Example 49]', '>100');

Then there is this compound:
Q: Entry Cc1ccc(Nc2cc(N(C)C)nc(N(C)CCc3c[nH]c4ccccc34)n2)cc1 [Example 77] , system human 5HT1A receptor (Homo sapiens): what selectivity ratio h5HT1A was measured?
Result: >30

====

# STUDY_SYSTEM: human GAL3 receptor (Homo sapiens)
# Construct: expressed in transfected cells
# EXPERIMENT_NOTES: Radioligand binding at cloned human GAL3 receptor
# MEASUREMENT_CONDITIONS: read-out: Ki GalR3; pyrimidines, cloned human receptor
Here the recorded pKi is given for each entry.
Expect pKi as a plain number equal to -log10 of the molar concentration.

Q: Entry COc1ccc(N2CCN(c3nc(Nc4ccc(C)cc4)cc(N4CCCCC4)n3)CC2)c(OC)c1 [Example 28] , system human GAL3 receptor (Homo sapiens): what pKi was measured?
Result: 6.57

Q: Entry COC[C@@H]1[C@@H](c2ccccc2)OCCN1c1nc(Nc2ccc(C)cc2)cc(N2CCCCC2)n1 [Example 49] , system human GAL3 receptor (Homo sapiens): what pKi was measured?
Result: 6.68

====

# STUDY_SYSTEM: human GAL3 receptor (Homo sapiens, UniProt O60755)
# Construct: expressed in transfected cells
# Sequence (O60755 whole entry): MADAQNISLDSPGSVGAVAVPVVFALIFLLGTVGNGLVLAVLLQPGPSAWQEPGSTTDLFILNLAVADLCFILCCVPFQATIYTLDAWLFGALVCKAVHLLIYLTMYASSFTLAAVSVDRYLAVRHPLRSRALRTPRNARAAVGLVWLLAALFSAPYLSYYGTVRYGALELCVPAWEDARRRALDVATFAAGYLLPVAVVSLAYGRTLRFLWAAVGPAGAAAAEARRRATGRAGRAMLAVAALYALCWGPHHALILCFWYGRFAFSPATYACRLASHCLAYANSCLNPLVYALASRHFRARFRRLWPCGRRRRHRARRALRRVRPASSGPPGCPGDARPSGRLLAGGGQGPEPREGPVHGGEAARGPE
# EXPERIMENT_NOTES: Radioligand binding at cloned human GAL3 receptor
# MEASUREMENT_CONDITIONS: indolones, cloned human receptor; read-out: Ki GalR3
Cut-off 80 nM on Ki: below means 1.0, at or above means 0.0.

Q: Is Ki of O=C1/C(=N\c2ccc(Cl)c(Cl)c2)c2ccccc2N1Cc1cccnc1 strictly below 80 nM?
Result: 1.0

Q: Is Ki of Cc1cc(C)cc(N=C2C(=O)N(c3ccccc3)c3ccccc32)c1 strictly below 80 nM?
Result: 0.0

Q: Is Ki of O=C1/C(=N\c2ccc(Cl)c(Cl)c2)c2ccccc2N1Cc1ccccn1 strictly below 80 nM?
Result: 1.0

Q: Is Ki of N#CCc1ccc(/N=C2\C(=O)N(c3ccccc3)c3ccccc32)cc1 strictly below 80 nM?
Result: 0.0

Q: Is Ki of Cc1ccc(C(F)(F)F)cc1/N=C1\C(=O)N(c2ccccc2)c2ccccc21 strictly below 80 nM?
Result: 1.0

Q: Is Ki of Cc1noc(C)c1CN1C(=O)/C(=N\c2cccc(C(F)(F)F)c2)c2ccccc21 strictly below 80 nM?
Result: 0.0

Q: Is Ki of O=C1/C(=N\c2cccc(C(F)(F)F)c2)c2ccccc2N1Cc1cccnc1 strictly below 80 nM?
Result: 0.0

Q: Is Ki of O=C1C(=Nc2cccc(Cl)c2)c2ccccc2N1c1ccccc1 strictly below 80 nM?
Result: 1.0

Q: Is Ki of O=C1/C(=N\c2ccc3cn[nH]c3c2)c2ccccc2N1c1ccccc1 strictly below 80 nM?
Result: 0.0

Q: Is Ki of C=CCN1C(=O)C(=Nc2ccc(Cl)c(Cl)c2)c2ccccc21 strictly below 80 nM?
Result: 0.0
